Target: TBK1 (Homo sapiens (Human))
Assay: TR-FRET kinase assay, TBK1
Settings: read-out: TBK1-IC50; full length recombinant TBK1 2.5 nM, 2x Km ATP, 1 μM peptide, 240 min at 25° C.; geometric mean of minimum four determinations
Assign IC50 to each entry below.
Report the value in nM with no unit label.

Value wanted: IC50 (TBK1 (Homo sapiens (Human))) of entry N#Cc1cc(-c2ncnc3[nH]c(-c4ccc(N5CCN(C6COC6)CC5)cc4)nc23)ccc1OC1CCOCC1 [Example 232]
4.49

Value wanted: IC50 (TBK1 (Homo sapiens (Human))) of entry N#Cc1cc(-c2c(F)cnc3[nH]c(-c4ccc(N5CCOCC5)cc4)cc23)ccc1OC1CCOCC1 [Example 47]
4.05

Value wanted: IC50 (TBK1 (Homo sapiens (Human))) of entry CN1CCN(c2ccc(-c3nc4c(-c5ccc(OC6CCOCC6)c(C#N)c5)ccnc4[nH]3)cc2)CC1 [Example 306]
1.85

----------
Molecular target: TBK1 (Homo sapiens (Human), UniProt Q9UHD2)
Sequence (Q9UHD2 whole entry): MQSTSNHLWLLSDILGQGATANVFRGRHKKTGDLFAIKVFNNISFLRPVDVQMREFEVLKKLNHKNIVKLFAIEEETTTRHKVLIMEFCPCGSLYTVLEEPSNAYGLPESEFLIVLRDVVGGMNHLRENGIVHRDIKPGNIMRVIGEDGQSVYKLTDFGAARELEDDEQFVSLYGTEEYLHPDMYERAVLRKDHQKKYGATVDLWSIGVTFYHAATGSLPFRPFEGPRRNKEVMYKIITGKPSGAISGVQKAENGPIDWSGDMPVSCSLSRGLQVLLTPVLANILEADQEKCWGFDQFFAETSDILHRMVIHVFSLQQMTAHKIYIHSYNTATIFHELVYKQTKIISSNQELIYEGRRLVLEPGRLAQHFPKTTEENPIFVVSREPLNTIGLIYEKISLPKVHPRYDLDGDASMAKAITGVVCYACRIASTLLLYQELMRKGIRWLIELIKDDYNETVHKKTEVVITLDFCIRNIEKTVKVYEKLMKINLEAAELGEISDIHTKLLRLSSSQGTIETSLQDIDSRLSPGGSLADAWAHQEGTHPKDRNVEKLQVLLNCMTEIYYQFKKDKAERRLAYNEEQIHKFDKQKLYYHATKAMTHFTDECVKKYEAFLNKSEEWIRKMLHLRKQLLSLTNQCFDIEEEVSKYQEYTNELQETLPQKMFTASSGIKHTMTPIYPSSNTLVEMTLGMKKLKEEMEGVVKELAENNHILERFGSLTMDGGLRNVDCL
Experiment: TR-FRET kinase assay, TBK1
Conditions: read-out: TBK1-IC50; full length recombinant TBK1 2.5 nM, 2x Km ATP, 1 μM peptide, 240 min at 25° C.; geometric mean of minimum four determinations
Property label: pIC50
Please express pIC50 as -log10 of the molar concentration.

Which pIC50 is listed for N#Cc1cc(-c2ccnc3[nH]c(-c4ccc(N5CCOCC5)cc4)cc23)ccc1OC1CCOCC1 [Example 48] ?
8.49

Which pIC50 is listed for N#Cc1cc(-c2ccnc3[nH]c(-c4ccc(N5CCOCC5)cc4)cc23)ccc1N1CC(O)C1 [Example 193] ?
8.48

Which pIC50 is listed for N#Cc1cc(-c2ccnc3[nH]c(-c4ccc(N5CCOCC5)cc4)cc23)ncc1OC1CCOCC1 [Example 26] ?
8.46

Which pIC50 is listed for N#Cc1cc(-c2ccnc3[nH]c(-c4cnn(C5CNC5)c4)cc23)ccc1OC1CCOCC1 [Example 9] ?
8.62

Which pIC50 is listed for N#CCC(=O)N1CC[C@H](Oc2ccc(-c3ccnc4[nH]c(-c5ccc(N6CCOCC6)cc5)cc34)cc2C#N)C1 [Example 24] ?
7.25

Which pIC50 is listed for N#Cc1cc(-c2ncnc3[nH]c(-c4ccc(C5CCN(CC(F)F)CC5)cc4)nc23)ccc1OC1CCNCC1 [Example 260] ?
7.58

Which pIC50 is listed for CC(C)(O)c1ccc(-c2cc3c(-c4ccc(O[C@@H]5CCN(C(=O)CO)C5)c(C#N)c4)ccnc3[nH]2)cc1 [Example 149] ?
8.81

Which pIC50 is listed for Cn1nccc1-c1cc2c(-c3ccc(OC4CCOCC4)c(C#N)c3)ccnc2[nH]1 [Example 181] ?
7.62

Which pIC50 is listed for N#Cc1cc(-c2ccnc3[nH]c(-c4ccc(N5CCOCC5)cc4)cc23)ccc1O[C@@H]1CCN(C(=O)CO)C1 [Example 15] ?
8.87

Which pIC50 is listed for N#Cc1cc(-c2ncnc3[nH]c(-c4ccc(N5CCOCC5)cc4)cc23)ccc1O[C@@H]1CCNC1 [Example 106] ?
8.31

Which pIC50 is listed for N#Cc1cc(-c2ncnc3[nH]c(-c4cccc(N5CCOCC5)c4)cc23)ccc1N1CC(O)C1 [Example 110] ?
7.90

Which pIC50 is listed for CN(C)C(=O)/C=C/c1cc2c(-c3ccc(OC4CCOCC4)c(C#N)c3)ccnc2[nH]1 [Example 179] ?
6.99

Which pIC50 is listed for N#Cc1cc(-c2ncnc3[nH]c(-c4ccc(C5CCN(CC(F)(F)F)CC5)cc4)nc23)ccc1OC1CCN(C=O)CC1 [Example 259] ?
7.91

Which pIC50 is listed for CN1CCN(c2ccc(-c3nc4c(-c5ccc(OC6CCOCC6)c(C#N)c5)ncnc4[nH]3)cc2)CC1 [Example 212] ?
8.94

Which pIC50 is listed for N#Cc1cc(-c2ncnc3[nH]c(-c4ccc(C(=O)NC5COC5)cc4)cc23)ccc1OC1CCN(C(=O)CO)CC1 [Example 163] ?
8.75

Which pIC50 is listed for N#Cc1cc(-c2ncnc3[nH]c(-c4ccc(C5CCN(CC(F)F)CC5)cc4)nc23)ccc1OC1CCN(C(=O)CO)CC1 [Example 255] ?
8.82

Which pIC50 is listed for N#Cc1cc(-c2ccnc3[nH]c(-c4ccc(C5(O)COC5)cc4)cc23)ccc1OC1CCOCC1 [Example 8] ?
8.51

Which pIC50 is listed for COc1ccc(-c2cc3c(-c4ccc(OC5CCNCC5)c(C#N)c4)ncnc3[nH]2)cc1 [Example 123] ?
7.65

Which pIC50 is listed for CC(=O)Nc1ccc(-c2cc3c(-c4ccc(OC5CCOCC5)c(C#N)c4)ccnc3[nH]2)cn1 [Example 236] ?
7.80

Which pIC50 is listed for N#Cc1cc(-c2ccnc3[nH]c(-c4ccc(N5CCOCC5)cc4)cc23)ccc1N1CCCC1=O [Example 13] ?
7.60

Which pIC50 is listed for N#Cc1cc(-c2ccnc3[nH]c(C(=O)N4CCOCC4)cc23)ccc1OC1CCOCC1 [Example 116] ?
6.00

Which pIC50 is listed for COc1cc(-c2cc3c(-c4ccc(OC5CCOCC5)c(C#N)c4)ncnc3[nH]2)ccc1N1CCN(S(C)(=O)=O)CC1 [Example 135] ?
8.64

Which pIC50 is listed for N#Cc1cc(-c2ncnc3[nH]c(-c4ccc(N5CCOCC5)cc4)nc23)ccc1OC1CCN(S(N)(=O)=O)CC1 [Example 262] ?
8.68

Which pIC50 is listed for CS(=O)(=O)N1CCN(c2ccc(-c3cc4c(-c5ccc(OC6CCOCC6)c(C#N)c5)ccnc4[nH]3)cc2)CC1 [Example 55] ?
8.55

----------
Target: IKKε (Homo sapiens (Human))
Sequence (Q14164 whole entry): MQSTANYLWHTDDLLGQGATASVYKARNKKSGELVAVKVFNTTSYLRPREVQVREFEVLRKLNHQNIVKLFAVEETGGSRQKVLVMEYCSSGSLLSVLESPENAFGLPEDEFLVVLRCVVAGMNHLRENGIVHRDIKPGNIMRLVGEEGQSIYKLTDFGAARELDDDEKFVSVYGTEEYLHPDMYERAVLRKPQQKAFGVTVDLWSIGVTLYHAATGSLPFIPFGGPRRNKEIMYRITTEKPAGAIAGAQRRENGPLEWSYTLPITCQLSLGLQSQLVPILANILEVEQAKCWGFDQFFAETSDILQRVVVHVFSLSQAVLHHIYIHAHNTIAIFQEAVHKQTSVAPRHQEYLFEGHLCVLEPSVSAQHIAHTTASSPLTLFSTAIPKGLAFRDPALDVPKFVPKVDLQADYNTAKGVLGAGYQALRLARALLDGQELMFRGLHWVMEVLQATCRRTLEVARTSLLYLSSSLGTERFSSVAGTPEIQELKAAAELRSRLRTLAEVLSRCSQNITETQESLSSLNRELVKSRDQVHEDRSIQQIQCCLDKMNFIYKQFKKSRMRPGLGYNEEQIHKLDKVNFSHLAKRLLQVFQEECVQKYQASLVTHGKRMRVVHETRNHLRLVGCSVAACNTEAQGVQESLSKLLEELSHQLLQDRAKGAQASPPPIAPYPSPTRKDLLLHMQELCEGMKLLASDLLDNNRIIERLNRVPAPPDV
Test: TR-FRET kinase assay, IKKε
Settings: full length recombinant IKKε 0.3 nM, 2x Km ATP, 1 μM peptide, 240 min at 25° C.; geometric mean of minimum four determinations
Property label: IC50 (µM)
Report the value in µM with no unit label.

Which IC50 is listed for "N#Cc1cc(-c2ccnc3[nH]c(-c4ccc(N5CCOCC5)cc4)cc23)ncc1OC1CCOCC1" ?
0.00684

Which IC50 is listed for "N#Cc1cc(-c2ccnc3[nH]c(C4=CCN(C(=O)CO)C4)cc23)ccc1OC1CCOCC1" ?
0.0355

Which IC50 is listed for "N#Cc1cc(-c2ccnc3[nH]c(C(=O)Nc4ccccc4)cc23)ccc1OC1CCOCC1" ?
0.112

Which IC50 is listed for "N#CCC(=O)N1CCC(Oc2ccc(-c3ccnc4[nH]c(-c5ccc(N6CCOCC6)cc5)cc34)cc2C#N)CC1" ?
0.0275

Which IC50 is listed for "N#Cc1cc(-c2ccnc3[nH]c(-c4ccc(C5(O)COC5)cc4)cc23)ccc1OC1CCOCC1" ?
0.00699

Which IC50 is listed for "CC(C)(O)c1ccc(-c2cc3c(-c4ccc(OC5CCOCC5)c(C#N)c4)ncnc3[nH]2)cc1" ?
0.00499

Which IC50 is listed for "N#Cc1cc(-c2ccnc3[nH]c(-c4ccc(N5CCOCC5)cc4)cc23)ccc1O[C@@H]1CCN(CC(F)F)C1" ?
0.0592

Which IC50 is listed for "N#Cc1cc(-c2ccnc3[nH]c(-c4ccc(N5CC6(COC6)C5)cc4)cc23)ccc1OC1CCOCC1" ?
0.013

----------
Assign pIC50 to each entry below.
Biological target: IKKε (Homo sapiens (Human))
Experiment: TR-FRET kinase assay, IKKε
Conditions: full length recombinant IKKε 0.3 nM, 2x Km ATP, 1 μM peptide, 240 min at 25° C.; geometric mean of minimum four determinations
Please express pIC50 as -log10 of the molar concentration.

Which pIC50 is listed for N#Cc1cc(-c2ncnc3[nH]c(-c4ccc(CC(=O)O)cc4)cc23)ccc1OC1CCOCC1 [Example 168] ?
7.81

Which pIC50 is listed for Cc1ncc(-c2cc3c(-c4ccc(OC5CCOCC5)c(C#N)c4)ncnc3[nH]2)s1 [Example 190] ?
7.85

Which pIC50 is listed for CC(C)(O)c1cccc(-c2cc3c(-c4ccc(OC5CCOCC5)c(C#N)c4)ccnc3[nH]2)c1 [Example 68] ?
7.65

Which pIC50 is listed for CC(C)(C)n1cc(-c2cc3c(-c4ccc(OC5CCOCC5)c(C#N)c4)ccnc3[nH]2)cn1 [Example 53] ?
7.86

Which pIC50 is listed for N#Cc1cc(-c2ncnc3[nH]c(Nc4cccc(N5CCOCC5)c4)nc23)ccc1OC1CCOCC1 [Example 194] ?
6.25

Which pIC50 is listed for N#Cc1cc(-c2ccnc3[nH]c(-c4ccc(N5CCOCC5)cc4)cc23)ccc1N1CCCC1=O [Example 13] ?
6.74

Which pIC50 is listed for N#Cc1cc(-c2ccnc3[nH]c(-c4ccc(C(=O)C(F)(F)F)cc4)cc23)ccc1OC1CCOCC1 [Example 237] ?
7.53
